target: 17β-HSD10 (Homo sapiens); construct: Histev (histidine tag with TEV site) (N, cleaved yes); made in house; host or cells: E. coli BL21-CodonPlus; assay: 17β-HSD10 (ABAD) enzyme inhibition assay, NADH oxidation read at 340 nm (primary screen and dose response); assay type: biochemical; conditions: recombinant 17βHSD10 enzyme assay
RECORDED ENDPOINT: Max. Effect (%)
Give the figure together with its unit, number first.

>  <COMPOUND>
Cc1ccsc1C(=O)N1CCC[C@H]1c1ccccc1-c1ccc(C#N)cc1

>  <Max. Effect (%)>
101%

$$$$
>  <COMPOUND>
O=C(c1sccc1Cl)N1CCC[C@H]1c1ccccc1-c1cccc(O)c1F (single isomer, unassigned) [ESC1002840]

>  <Max. Effect (%)>
98%

$$$$
>  <COMPOUND>
Cc1ccc(C(=O)N(CC(C)C)c2cccc(N(C)Cc3c[nH]cn3)c2)c(C)c1

>  <Max. Effect (%)>
93%

$$$$
>  <COMPOUND>
CC(C)CN(C(=O)c1ccccc1F)c1cccc(N(CCO)Cc2c[nH]cn2)c1

>  <Max. Effect (%)>
81%

$$$$
>  <COMPOUND>
Cc1ccsc1C(=O)N1CCC[C@H]1c1ccccc1-c1cccc(C(F)(F)F)c1 (racemic) [ESC1002790]

>  <Max. Effect (%)>
93%

$$$$
>  <COMPOUND>
COc1cccc(-c2ccccc2[C@H]2CCCN2C(=O)c2snnc2C)c1

>  <Max. Effect (%)>
6%

$$$$
>  <COMPOUND>
COCCN(C(=O)c1ccccc1F)c1cccc(N(C)Cc2cn(CCOC)cn2)c1

>  <Max. Effect (%)>
2%

$$$$
>  <COMPOUND>
Cc1ccsc1C(=O)N1CCC[C@H]1c1ccccc1-c1cccc(Cl)c1 [ESC1002321]

>  <Max. Effect (%)>
105%

$$$$
>  <COMPOUND>
COc1cccc(-c2ccccc2[C@H]2CCCN2C(=O)C2CCOCC2)c1

>  <Max. Effect (%)>
12%

$$$$
>  <COMPOUND>
Cc1ccc(C(=O)N(CC(C)C)c2cccc(N(C)Cc3cnc[nH]3)c2)cc1

>  <Max. Effect (%)>
99%

$$$$

Query: Please tell me: Max. Effect (%) of COc1ccc(-c2ccccc2[C@@H]2CCCN2C(=O)c2sccc2C)cc1 (single isomer, unassigned) , system 17β-HSD10 (Homo sapiens)?
Response: 99%

Query: Similarly, COc1ccc(-c2ccccc2C2CCCN2C(=O)c2sccc2C)cn1 (racemic) ?
Response: 96%

Query: Similarly, CCN(C(=O)c1cccc(F)c1)c1cccc(N(C)Cc2cnc[nH]2)c1 ?
Response: 18.4%

Query: Similarly, CC(C)CN(C(=O)c1ccccc1C(F)(F)F)c1cccc(N(C)Cc2c[nH]cn2)c1 ?
Response: 94%

Query: Similarly, Cc1ccc(-c2ccccc2[C@@H]2CCCN2C(=O)c2sccc2C)cc1 ?
Response: 102%

Query: Similarly, COc1cccc(-c2ccccc2[C@@H]2CCCN2C(=O)c2sccc2C)c1 [ESC1002338] ?
Response: 101%

Query: Similarly, CC(C)CN(C(=O)c1ccccc1F)c1cccc(NCc2c[nH]c(C(C)C)n2)c1 ?
Response: 18%

###

List of Max. Fit values.
Biological target: 17β-HSD10 (Homo sapiens, UniProt Q99714)
Construct: Histev (histidine tag with TEV site) (N, cleaved yes); made in house; host or cells: E. coli BL21-CodonPlus
Sequence (Q99714 whole entry): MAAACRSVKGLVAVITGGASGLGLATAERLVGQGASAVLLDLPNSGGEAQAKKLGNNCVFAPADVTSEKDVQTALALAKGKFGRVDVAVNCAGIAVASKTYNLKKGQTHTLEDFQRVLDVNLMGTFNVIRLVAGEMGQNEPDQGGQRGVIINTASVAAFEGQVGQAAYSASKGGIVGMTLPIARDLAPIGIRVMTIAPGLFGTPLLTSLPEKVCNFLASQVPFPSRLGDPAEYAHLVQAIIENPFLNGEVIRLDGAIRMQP
Experiment: 17β-HSD10 (ABAD) enzyme inhibition assay, NADH oxidation read at 340 nm (primary screen and dose response)
Format: biochemical
Conditions: recombinant 17βHSD10 enzyme assay, curve fit
Description: Cell pellets of E. coli BL21-CodonPlus cells containing Histev-17β-HSD10 protein were re-suspended for 30 min, 4° C., in lysis buffer (20 mM NaH2PO4, 30 mM imidazole, 500 mM NaCl, 10% (v/v) glycerol, pH 7.5) with the addition of complete ethylenediaminetetraacetic acid (EDTA)-free protease inhibitor tablets (Roche), lysozyme (1 mg/mL), deoxyribonuclease (DNase) (20 μg/mL) and Triton X-100 (0.1% (v/v)). […]
Answer with the value's number alone.

>  <COMPOUND>
CC(C)CN(C(=O)c1ccccc1F)c1cccc(N(C)Cc2c[nH]c(C3CC3)n2)c1

>  <EXPERIMENTAL TARGET>
17β-HSD10 (Homo sapiens, UniProt Q99714)

>  <READING>
80

$$$$
>  <COMPOUND>
CC(C)CN(C(=O)c1ccc(Cl)s1)c1cccc(N(C)Cc2c[nH]cn2)c1

>  <EXPERIMENTAL TARGET>
17β-HSD10 (Homo sapiens, UniProt Q99714)

>  <READING>
95

$$$$
>  <COMPOUND>
CC(C)CN(C(=O)c1ccccc1)c1cccc(N(C)Cc2cnc[nH]2)c1

>  <EXPERIMENTAL TARGET>
17β-HSD10 (Homo sapiens, UniProt Q99714)

>  <READING>
98

$$$$
>  <COMPOUND>
COc1cccc(-c2ccccc2[C@@H]2CCCN2C(=O)c2sccc2C)c1 [ESC1002338]

>  <EXPERIMENTAL TARGET>
17β-HSD10 (Homo sapiens, UniProt Q99714)

>  <READING>
100

$$$$
>  <COMPOUND>
COc1cccc(-c2ccccc2[C@H]2CCCN2C(=O)c2scnc2C)c1

>  <EXPERIMENTAL TARGET>
17β-HSD10 (Homo sapiens, UniProt Q99714)

>  <READING>
80

$$$$

Query: Any idea what Max. Fit was measured for CC(C)CN(C(=O)c1c(F)cccc1F)c1cccc(N(C)Cc2c[nH]cn2)c1 ?
Response: 96

Query: Similarly, CC(C)CN(C(=O)c1ccccc1F)c1cccc(N(C)Cc2cnc[nH]2)c1 ?
Response: 99

Query: Similarly, CCN(C(=O)c1ccccc1F)c1cccc(N(C)Cc2cnc[nH]2)c1 ?
Response: 101

Query: Similarly, Cc1ccccc1-c1ccccc1[C@@H]1CCCN1C(=O)c1sccc1C ?
Response: 101

Query: Similarly, CC(C)CN(C(=O)c1ccccc1F)c1cccc(N(C)Cc2ccccn2)c1 ?
Response: 104

Query: Similarly, COc1cccc(-c2ccccc2[C@@H]2CCCN2C(=O)c2cn[nH]c2)c1 (racemic) ?
Response: 115

Sourced from patent US20260132123A1
